Target: Nonstructural protein 3 (Zika virus, UniProt A0A024AXB9)
Sequence (A0A024AXB9 whole entry): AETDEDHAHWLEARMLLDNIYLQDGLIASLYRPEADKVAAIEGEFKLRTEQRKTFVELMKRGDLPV
measurement kind: pIC50
On this scale, pIC50 is minus log10 of a concentration expressed in M (mol/L).

>  <compound>
NCc1ccc(-c2ncc(OCC3CCNCC3)nc2-c2cccc3[nH]cnc23)cc1

>  <quantitative result>
5.80

$$$$
>  <compound>
Cc1noc(C)c1-c1nc(OCC2CCNCC2)cnc1-c1ccc(CN)cc1

>  <quantitative result>
4.95

$$$$
>  <compound>
NCc1ccc(-c2nc(OCC3CCNCC3)cnc2-c2ccncc2)cc1

>  <quantitative result>
6.49

$$$$
>  <compound>
NCc1ccc(-c2ncc(OCC3CCNCC3)nc2-c2ccc(Oc3ccccc3)cc2)cc1

>  <quantitative result>
4.49

$$$$
>  <compound>
Brc1ccc(-c2ncc(OCC3CCNCC3)nc2-c2ccc(Br)cc2)cc1

>  <quantitative result>
4.66

$$$$
>  <compound>
NCc1ccc(-c2ncc(OCC3CCNCC3)nc2-c2ccc(CN)cc2)cc1

>  <quantitative result>
6.21

$$$$
>  <compound>
NCc1ccc(-c2ncc(OCCC3CCNCC3)nc2-c2ccc(-c3ccoc3)cc2)cc1

>  <quantitative result>
5.89

$$$$
>  <compound>
NCc1ccc(-c2cc(CNCC3CCNCC3)sc2-c2ccc(CN)cc2)cc1

>  <quantitative result>
4.97

$$$$

Query: For the compound shown here, `COc1cc(CN)ccc1-c1nc(OCC2CCNCC2)cnc1-c1ccncc1` , give the reported pIC50.
Response: 5.46

Query: For the compound shown here, `CN(C)Cc1ccc(-c2ncc(OCC3CCNCC3)nc2-c2ccc(-c3ccoc3)cc2)cc1` , give the reported pIC50.
Response: 5.21

Query: For the compound shown here, `NCc1ccc(-c2ncc(OCC3CCNCC3)nc2-c2ccc(-c3ccoc3)cc2F)cc1` , give the reported pIC50.
Response: 5.08

Query: For the compound shown here, `OCc1ccc(-c2ncc(OCC3CCNCC3)nc2-c2ccc(CO)cc2)cc1` , give the reported pIC50.
Response: 6.29

Query: For the compound shown here, `COc1cc(-c2ccoc2)ccc1-c1nc(OCC2CCNCC2)cnc1-c1ccc(CN)cc1` , give the reported pIC50.
Response: 5.72

Query: For the compound shown here, `ONCc1ccc(-c2ncc(OCCC3CCNCC3)nc2-c2ccc(CNO)cc2)cc1` , give the reported pIC50.
Response: 5.80

Query: For the compound shown here, `NCc1ccc(-c2ncc(OCC3CCNCC3)nc2-c2ccc(C3CCCCC3)cc2)cc1` , give the reported pIC50.
Response: 4.79

Query: For the compound shown here, CC(Oc1cnc(-c2ccc(CN)cc2)c(-c2ccc(-c3ccoc3)cc2)n1)C1CCNCC1 (racemic) , give the reported pIC50.
Response: 6.62

Query: For the compound shown here, `NCc1ccc(-c2ncc(OCC3CCNCC3)nc2-c2ccc(C3=CCNCC3)cc2)cc1` , give the reported pIC50.
Response: 5.54

Query: For the compound shown here, `COc1cc(-c2ncc(OCC3CCNCC3)nc2-c2ccc(-c3ccsc3)cc2)ccc1C(N)=O` , give the reported pIC50.
Response: 5.33

Query: For the compound shown here, `CC(C)(C)C(=O)OCc1ccc(-c2ncc(OCC3CCNCC3)nc2-c2ccc(COC(=O)C(C)(C)C)cc2)cc1` , give the reported pIC50.
Response: 5.01

Query: For the compound shown here, `NCc1ccc(-c2nc(OCC3CCNCC3)cnc2-c2ccc(-c3ccoc3)cc2)cc1` , give the reported pIC50.
Response: 6.17
